target: MARK4 (human); assay: KINOMEscan competition binding; conditions: compound 10.0 µM
ENDPOINT_NAME: kinase still bound, per cent of control (%)

Worked cases, kinase still bound, per cent of control given:
Cn1cc(C2=C(c3ccc(Cl)cc3Cl)C(=O)NC2=O)c2ccccc21 : 100
COc1ccc(CNC(=O)Nc2ncc([N+](=O)[O-])s2)cc1 : 100

(1) Cc1cnc(-c2cnc(NCCNc3ccc(C#N)cn3)nc2-c2ccc(Cl)cc2Cl)[nH]1
(2) O=C1Nc2cc(Br)ccc2/C1=C1/Nc2ccccc2/C1=N\O
# input Please indicate which entry, 1 or 2 , has the lower recorded kinase still bound, per cent of control value. # answer = label of selected item
# output 2
(2: 35%, 1: 100%)
